// data source = paper PMC5540273

Quick reference for %Inh among some compounds
Test system: TRKA;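 also: KINOMEscan kinase panel screen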
Construct: gene NTRK1
Conditions: concentration: 1 μM, replicates: in singlicate; n = 1
endpoint: %Inh (%)

compound="CS(=O)(=O)CCNCc1nc(-c2ccc3ncnc(Nc4ccc(OCc5ccccc5)c(Cl)c4)c3c2)cs1.Cl [GW582764]" endpoint_value=0
compound="COc1ccc(Nc2nccc(-c3ccc(NC(=O)c4cc5cc(F)ccc5[nH]4)cc3)n2)cc1 [GSK1229496]" endpoint_value=9
compound=COc1ccc(-c2coc3ccc(-c4nnc(C)o4)cc23)cc1 endpoint_value=0
compound="O=C(Nc1n[nH]c2nc(-c3cccs3)c(Br)cc12)C1CCCC1 [SB-743341]" endpoint_value=16
compound=CNC(=O)c1ccc(C)c(-n2c(C)cc(OCc3ccc(F)cc3F)c(Br)c2=O)c1 endpoint_value=0
compound="CC(C)c1ccc(O)cc1Nc1ccnc2ccc(C(F)(F)F)cc12 [GW482059]" endpoint_value=12
compound="CSc1ccc(-c2nc3n(c2-c2ccncc2)CCC3)cc1 [SKF-105561]" endpoint_value=0
compound="COC(=O)C(Cc1ccccc1)NC(=O)NC1CCN(c2ccnc(Nc3ccc(F)cc3)n2)C1 (stereo not drawn) [GSK1379714]" endpoint_value=98.2
compound="COc1nccc(-c2c(-c3ccc(F)cc3)ncn2CCCN2CCOCC2)n1 [SB-282852]" endpoint_value=61
compound="CC(=O)c1cccc(NC(=O)NC2CCN(c3ccnc(Nc4ccc(F)cc4)n3)C2)c1 (stereo not drawn) [GSK1379710]" endpoint_value=56
compound="Cl.Cl.Cl.N#Cc1ccc(CCNc2nccc(-c3cccc(CN4CCNCC4)c3)n2)cc1 [GSK2137462]" endpoint_value=56
compound=CC(=O)c1c(C)c2cnc(Nc3ccc(N4CCNCC4)cn3)nc2n(C2CCCC2)c1=O endpoint_value=0
compound="O=C(Nc1n[nH]c2nc(-c3cccs3)c(Br)cc12)C1CC1 [SB-735297]" endpoint_value=6
compound="CC(C)c1cc(-c2ccc3c(N)n[nH]c3c2)nc(N)n1 [GSK2250882]" endpoint_value=0
compound="Cc1ccc(NC(=O)Nc2ccccc2F)cc1-c1ccc(C(=O)Nc2ccncc2)cc1 [GSK1398477]" endpoint_value=10
compound=COc1ccc(CSc2nnc(-c3ccc4nccn4c3)o2)cc1C(F)(F)F endpoint_value=18
compound="Cc1ccc(NC(=O)Nc2ccc(Cl)c(C(F)(F)F)c2)cc1-c1ccc(C(=O)Nc2ccncc2)cc1 [GSK1398470]" endpoint_value=11
compound=CC(=O)c1c(C)c2cnc(Nc3ccn(C)n3)nc2n(C2CCCC2)c1=O endpoint_value=29
